# tgt: T1, human FolR1 ECD-AcTev-Fcknob-Avi tag + Fc hole, biotinylated monomeric Fc fusion (human, UniProt P0DOX5 223-449 = IgG part)
# T1 construct: also called huFolR1; huFolR1-Fc
# method_notes: SPR ProteOn, Fab analyte;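 further: recombinant antigens immobilized, purified Fab two-fold dilutions injected in parallel channels, 200 s association and 600 s dissociation, buffer-only channel as in-line reference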
readout: pKd
Note on pKd: it is the negative log10 of concentration, concentration in mol/L.

Exam item: Param item = 19A4 Fab (Fab, V domains shown) VH: QVQLVQSGAEVKKPGASVKVSCKASGYTFTSYYMHWVRQAPGQGLEWMGIINPSGGSTSYAQKFQGRVTMTRDTSTSTVYMELSSLRSEDTAVYYCARGGWIRWEHFDYWGQGTLVTVSS VL: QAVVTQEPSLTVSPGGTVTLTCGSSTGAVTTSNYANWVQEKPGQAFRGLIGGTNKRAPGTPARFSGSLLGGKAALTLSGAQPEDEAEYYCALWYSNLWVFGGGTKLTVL ; retrieve measured pKd.
Marked response: 5.69

These measurements were taken from patent US20210087291A1.
